assay: Mouse pharmacokinetic study, intravenous dosing; assay type: in vivo; conditions: male, C57BL/6, mouse, iv; plasma, 10 mg/kg i.v., time 8 h; read-out: Parent compound concentration following intravenous administration
observed_property: concentration at 8 h

Below: 4 compounds and their reported concentration at 8 h.
{"columns": ["compound", "concentration at 8 h"],
 "data": [
  ["C=C(CC(=O)OC(CCCC)CCCC)C(=O)OCC(=O)O [Example 175]", "< 4 ng/mL"],
  ["C=C(CC(=O)O[C@@H](CCCCCC)C(F)(F)F)C(=O)OCC(=O)O [Example 182]", "< 4 ng/mL"],
  ["C=C(CC(=O)O[C@@H](C)CCCCCC)C(=O)OCC(=O)O [Example 89]", "< 4 ng/mL"],
  ["C=C(CC(=O)O[C@H](C)CCCCCC)C(=O)OCc1nn[nH]n1 [Example 161]", "< 4 ng/mL"]
]}

Now consider a different compound.
So what does the record say about concentration at 8 h for C=C(CC(=O)OC1CCCCCCC1)C(=O)OCCC(=O)O [Example 82] ?
< 0.8 ng/mL
